target: T1, human Claudin18.2 protein (P50251802, GenScript) (human, UniProt P56856-2 1-261, limits assumed); test: SPR (Biacore T200), human Claudin18.2 amine-coupled to the chip, antibody 0-100 nM in the mobile phase, 1:1 model
T1 construct: also called human CLDN18.2
Reported kon by item:

Hz46F6 (antibody, human IgG1, kappa, V domains shown) VH: QVQLQESGPGLVKPSETLSLTCTVSGFSLTDYGVSWIRQPPGKGLEWIGVMWGGGNTYYNSALKSRVTISVDTSKNQFSLKLSSVTAADTAVYYCARQRYGGNAMDYWGQGTLVTVSS VL: DIVMTQSPDSLAVSLGERATINCKSSQSLLNSGNQRNYLTWYQQKPGQPPKLLIYWASTRESGVPDRFSGSGSGTDFTLTISSLQAEDVAVYYCQNSYFYPFTFGGGTKVEIKR | 147000 M⁻¹ s⁻¹

Attention now shifts to the item below.
Request: Name the reported kon value associated with the binder Hz59C1 (antibody, human IgG1, kappa, V domains shown) VH: QVQLQESGPGLVKPSETLSLTCTVSGYSITSGYGWNWIRQPPGKGLEWIGYIHFSGSTNYNPSLKSRVTISVDTSKNQFSLKLSSVTAADTAVYYCARSGKGNAMDYWGQGTLVTVSS VL: DIVMTQSPDSLAVSLGERATINCKSSQSLLNSGNQKNYLTWYQQKPGQPPKLLIYWASTRESGVPDRFSGSGSGTDFTLTISSLQAEDVAVYYCQNDYYFPFTFGGGTKVEIKR
Response: 248000 M⁻¹ s⁻¹

All figures here come from patent US20230235047A1.
